Cited source: patent US10125134B2

Tested on: NCI-H358 cells (express KRas G12C), Phospho-ERK
Test: Cellular inhibition of KRas G12C: Phospho-ERK in NCI-H358 cells
Format: cell-based
Details: Homo sapiens, NCI-H358, 3 h, pERK(Thr202/Tyr204) normalized with GAPDH; NCI-H358 cells; 3 hours; read-out: IC50
As shown below, each of these compounds has a reported IC50 value.

Below, each entry is followed by its recorded IC50 result.
Compound	Result
C=CC(=O)N1CCN(c2nc(OC[C@H]3CCCN3CCO)nc3c2CCN(c2cccc4ccccc24)C3)CC1CC#N (some centres unmarked)	0.1 to 1000 nM
C=CC(=O)N1CCN(c2nc(OCCN3CCC(C#N)CC3)nc3c2CCN(c2cc(O)cc4ccccc24)C3)CC1	> 1000 nM
C=CC(=O)N1CCN(c2nc(OCCN3CC(F)(F)C3)nc3c2CCN(c2cc(O)cc4ccccc24)C3)CC1	> 1000 nM

Prompt: Param readout = IC50; param system = NCI-H358 cells (express KRas G12C), Phospho-ERK; param query = C=CC(=O)N1CCN(c2nc(OC3CCN(C)C3)nc3c2CCN(c2cc(O)cc4ccccc24)C3)CC1 (centres unmarked) ; response: value
Response: > 1000 nM

Prompt: What do you have for `C=CC(=O)N1CCN(c2nc(OC[C@@H]3CCCN3C)nc3c2CCN(c2c(C(F)(F)F)ccc4[nH]ncc24)C3)CC1` ?
Response: 0.1 to 1000 nM
